Just for reference, patent US20240360109A1 is where these values come from.

molecular target: human GLP-1 receptor (Homo sapiens); experiment: Stimulation of human GLP1 receptor stable transgenic cell line CHO-K1/GLP-1R/CRE-luc to produce cAMP (HTRF); conditions: cAMP production, CHO-K1/GLP-1R/CRE-luc cells, 30 minutes incubation, 0.5 mM IBMX
Sequence (P43220 24-463): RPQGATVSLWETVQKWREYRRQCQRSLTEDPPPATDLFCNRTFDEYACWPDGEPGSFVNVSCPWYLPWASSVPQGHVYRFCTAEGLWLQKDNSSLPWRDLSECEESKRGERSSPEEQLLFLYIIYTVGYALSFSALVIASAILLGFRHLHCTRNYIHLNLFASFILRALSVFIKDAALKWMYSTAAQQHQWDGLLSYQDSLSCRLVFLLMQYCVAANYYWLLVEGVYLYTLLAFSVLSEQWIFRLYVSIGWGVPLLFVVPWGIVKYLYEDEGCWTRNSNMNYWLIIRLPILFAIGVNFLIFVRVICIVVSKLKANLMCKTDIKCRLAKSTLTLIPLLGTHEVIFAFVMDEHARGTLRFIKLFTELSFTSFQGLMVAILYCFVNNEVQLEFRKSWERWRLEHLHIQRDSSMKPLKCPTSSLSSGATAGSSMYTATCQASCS

>  <COMPOUND>
[2H]C([2H])([2H])Oc1cc(Cl)ccc1[C@@]1([2H])C=C(F)c2cccc(C3CCN(Cc4nc5ccc(C(=O)O)nc5n4C[C@@H]4CCO4)CC3)c2O1

>  <EC50 [nM]>
0.04

$$$$
>  <COMPOUND>
[2H][C@]1(c2ccc(Cl)cc2F)C=Cc2cccc(C3CCN(Cc4nc5ccc(C(=O)O)nc5n4C[C@@H]4CCO4)CC3)c2O1

>  <EC50 [nM]>
0.07

$$$$
>  <COMPOUND>
O=C(O)c1ccc2nc(CN3CCC(c4cccc5c4OC(c4ccc(Cl)cc4F)C=C5F)CC3)n(C[C@@H]3CCO3)c2c1 (stereo partly drawn)

>  <EC50 [nM]>
0.13

$$$$
>  <COMPOUND>
O=C(O)c1ccc2nc(CN3CCC(c4cccc5c4O[C@@H](c4ccc(Cl)cc4F)C=C5)CC3)n(C[C@@H]3CCO3)c2c1

>  <EC50 [nM]>
0.06

$$$$
>  <COMPOUND>
[2H]C([2H])([2H])Oc1cc(Cl)ccc1[C@@]1([2H])C=C(F)c2cccc(C3CCN(Cc4nc5ccc(C(=O)O)cc5n4C[C@@H]4CCO4)CC3)c2O1

>  <EC50 [nM]>
0.08

$$$$
>  <COMPOUND>
[2H]C([2H])([2H])Oc1cc(Cl)ccc1[C@H]1C=C(F)c2cccc(C3CCN(Cc4nc5ccc(C(=O)O)cc5n4C[C@@H]4CCO4)CC3)c2O1

>  <EC50 [nM]>
0.05

$$$$
